Each recorded value in this set is attributed to patent US20180208678A1.

Target: BgaD-D, smallest isozyme of the β-galactosidase from B. circulans ATCC 31382 (Biolacta) (Bacillus circulans ATCC 31382)
Test: Kd table; method not given
Label condition met when Kd < 40 nM; otherwise condition not met.

{"columns": ["binder", "class.assignment"],
 "data": [
  ["Mb(BgaD_L03) (designed binder) VSSVPTKLEVVAATPTSLLISWDAGDYWVYYYRITYGETGGNSPVQEFTVPGYSSTATISGLKPGVDYTITVYAGDLSFNTYYYSPISINYRT", "condition not met"],
  ["Mb(BgaD_L05) (designed binder) VSSVPTKLEVVAATPTSLLISWDAYKSLGGVDYYRITYGETGGNSPVQEFTVPGSSSTATISGLKPGVDYTITVYAGYLWYPYGEWSPISINYRT", "condition not met"],
  ["Mb(BgaD_S12) (designed binder) VSSVPTKLEVVAATPTSLLISWDAPAVTVVFYIITYGETGAAVWPGHQEFTVPGSKSTATISGLKPGVDYTITVYAVGPWDYYSPISINYRT", "condition met"],
  ["Mb(BgaD_L04) (designed binder) VSSVPTKLEVVAATPTSLLISWDAYEHWSGVYYYRITYGETGGNSPVQEFTVPGSSSTATISGLKPGVDYTITVYAYSYSYASMYSPISINYRT", "condition not met"],
  ["Mb(BgaD_L14) (designed binder) VSSVPTKLEVVAATPTSLLISWDASSYYGVVSYYRITYGETGGNSPVQEFTVPGYSSTATISGLKPGVDYTITVYASYYYWYTSYTKSPISINYRT", "condition met"],
  ["Mb(BgaD_S07) (designed binder) VSSVPTKLEVVAATPTSLLISWDAPAVTVDLYLITYGETGFSYGFPQAFTVPGSKSTATISGLKPGVDYTITVYASTVDGHSSPISINYRT", "condition not met"],
  ["Mb(BgaD_S09) (designed binder) VSSVPTKLEVVAATPTSLLISWDAPAVTVVYYVITYGETGGNSPVQEFTVPGSKSTATISGLKPGVDYTITVYAYSDQVEYYEYFYGSPISINYRT", "condition not met"],
  ["Mb(BgaD_S13) (designed binder) VSSVPTKLEVVAATPTSLLISWDAPAVTVVFYVITYGETGVHWPGYQKFTVPGSKSTATISGLKPGVDYTITVYAQFPWYMGSPISINYRT", "condition not met"],
  ["1Mb39 S (designed binder) VSSVPTKLEVVAATPTSLLISWDAPAVTVDFYLITYGETGGPSWPQAFAVPGSKSTATISGLKPGVDYTITVYASSSSRISSSSSKPISINYRT", "condition not met"],
  ["Mb(BgaD_L02) (designed binder) VSSVPTKLEVVAATPTSLLISWDANGWNYVKYYRITYGETGGNSPVQEFTVPGSSSTATISGLKPGVDYTITVYAYEYYSESSSSPISINYRT", "condition met"],
  ["Mb(BgaD_L24) (designed binder) VSSVPTKLEVVAAAPTTLLISWDAFDGYWYDYVSYYRITYGETGGNSPVQEFTVPSSSSTAIISGLKPGVDYTITVYAYHHSQQQYLSPISINYRT", "condition met"],
  ["Mb(BgaD_L18) (designed binder) VSSVPTKLEVVAATPTSLLISWDAESWYWPYYVSYYRITYGETGGNSPVQEFTVPSSSSTATISGLKPGVDYTITVYAFEHHEQRYYSPISINYRT", "condition not met"],
  ["Mb(BgaD_L22) (designed binder) VSSVPTKLEVVAATPTSLLISWDAFDGYWYDYVSYYRITYGETGGNSPVQVFTVPSSSSTATISGLKPGVDYTITVYAYSHSQLQYLSPISINYRT", "condition met"],
  ["Mb(BgaD_S06) (designed binder) VSSVPTKLEVVAATPTSLLISWDAPAVTVVFYVITYGETGAAVWPGHQEFTVPGSKSTATISGLKPGVDYTITVYAQGGRWKSSPISINYRT", "condition met"]
]}
